From: BindingDB's records for doi:10.7270/Q2H130FK

Give pEC50 for every item shown.
- MEASURED_TARGET: Integrin alpha-4 (Homo sapiens, UniProt P05556+P13612)
- Sequence (P13612 whole entry, one chain of several): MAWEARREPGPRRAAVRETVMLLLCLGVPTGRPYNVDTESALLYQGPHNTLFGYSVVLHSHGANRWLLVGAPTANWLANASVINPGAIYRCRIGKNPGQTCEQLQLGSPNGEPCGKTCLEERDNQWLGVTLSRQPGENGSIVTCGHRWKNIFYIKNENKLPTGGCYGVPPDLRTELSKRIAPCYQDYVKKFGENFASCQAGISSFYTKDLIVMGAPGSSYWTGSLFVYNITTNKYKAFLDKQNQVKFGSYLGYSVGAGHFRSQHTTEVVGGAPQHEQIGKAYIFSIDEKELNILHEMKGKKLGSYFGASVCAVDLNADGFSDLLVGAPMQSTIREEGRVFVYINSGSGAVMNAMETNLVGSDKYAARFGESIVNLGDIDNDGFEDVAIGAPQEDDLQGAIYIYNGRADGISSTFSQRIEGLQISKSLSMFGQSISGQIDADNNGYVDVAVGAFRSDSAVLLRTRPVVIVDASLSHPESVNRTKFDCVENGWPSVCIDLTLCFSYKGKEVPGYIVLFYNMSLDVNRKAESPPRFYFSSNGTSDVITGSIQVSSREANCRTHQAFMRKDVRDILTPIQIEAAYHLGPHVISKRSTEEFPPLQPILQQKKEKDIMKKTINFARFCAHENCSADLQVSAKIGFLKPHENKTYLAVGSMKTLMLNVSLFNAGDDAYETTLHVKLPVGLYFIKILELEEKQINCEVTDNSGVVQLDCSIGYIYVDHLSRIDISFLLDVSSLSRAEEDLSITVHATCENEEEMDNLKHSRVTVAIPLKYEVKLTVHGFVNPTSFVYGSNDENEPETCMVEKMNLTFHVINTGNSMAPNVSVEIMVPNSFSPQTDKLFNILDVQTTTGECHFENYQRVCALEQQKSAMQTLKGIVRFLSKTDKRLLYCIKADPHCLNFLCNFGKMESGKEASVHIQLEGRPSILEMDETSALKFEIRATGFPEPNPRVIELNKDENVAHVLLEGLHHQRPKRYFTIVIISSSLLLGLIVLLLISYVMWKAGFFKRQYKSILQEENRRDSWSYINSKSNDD
- METHOD: inhibition of LDV ligand binding to VLA-4 – cell-based, LDV-FITC binding, flow cytometry, dose response (AID 702)
API: returns pEC50 as number; meaning -log10 of concentration in mol/L.

Give the reported pEC50 for this compound. COc1ccc(-n2ncc3c(N4CCCc5ccccc54)ncnc32)cc1
4.28

Give the reported pEC50 for this compound. O=S1(=O)Nc2c(ccc3cccnc23)-c2ccccc21
4.70

Give the reported pEC50 for this compound. CCCOc1ccc(C(CC(=O)O)NC(=O)c2ccc3c(c2)OCO3)cc1 (stereo not drawn)
4.95

Give the reported pEC50 for this compound. CCOC(=O)c1cnc(-n2nc(C)cc2C)nc1NC(C)c1ccccc1 (stereo not drawn)
4.00

Give the reported pEC50 for this compound. COc1ccc(-c2nnc(Nc3nc4c(OC)cccc4s3)o2)cc1
5.10

Give the reported pEC50 for this compound. CCCCC1(C(=O)OCC)CC(CN2CCOCC2)OC1=O (stereo not drawn)
5.19

Give the reported pEC50 for this compound. CCOC(=O)c1c(C)oc2c1c1c(c3ccccc32)OCN(Cc2ccccn2)C1
5.36

Give the reported pEC50 for this compound. CCOc1ccc2[nH]c(=O)c(CN(CC3COCCO3)C(=O)C3CC3)cc2c1 (stereo not drawn)
4.35

Give the reported pEC50 for this compound. COc1ccc(-c2coc3c(CN4CCCCC4)c(O)c(CN4CCCCC4)c(O)c3c2=O)cc1
4.00

Give the reported pEC50 for this compound. CCOC(=O)c1sc(Nc2nc3c(OC)cccc3s2)nc1C
4.47

Give the reported pEC50 for this compound. CCOc1ccc(-n2c(O)c(C=NCCN3CCNCC3)c(=O)[nH]c2=O)cc1
5.29
